# Experimental details: Oral
# Measurement parameters: human, in vivo, 11.2 mg, AUC0-96, oral d5-methadone HCl 11.2 mg, steady-state ritonavir, mean ± SD, n=12
Measurement name: AUC(0-t)

// AUC(0-t) value for CCC(=O)C(C[C@H](C)N(C)C)(c1ccccc1)c1ccccc1 : 308 ng·h/mL

* * *

# Experimental details: Oral
# Measurement parameters: human, in vivo, 11.2 mg, tmax, oral d5-methadone HCl 11.2 mg, steady-state ritonavir, median (range)
Measurement name: Tmax (h)
Numbers only here, please. The scale is h.

The value of Tmax measured for the molecule CCC(=O)C(C[C@H](C)N(C)C)(c1ccccc1)c1ccccc1 turned out to be 4

* * *

# Experimental details: Intravenous
# Measurement parameters: human, in vivo, 6 mg, AUC0-∞, IV methadone HCl 6.0 mg, acute ritonavir, mean ± SD, n=12
Measurement name: AUC(0-inf) (ng·h/mL)
# unit: ng·h/mL | format: bare number

For CCC(=O)C(C[C@H](C)N(C)C)(c1ccccc1)c1ccccc1 the compound record lists AUC(0-inf) as 241

* * *

# Experimental details: Oral
# Measurement parameters: human, in vivo, 11.2 mg, tmax, oral d5-methadone HCl 11.2 mg, control, median (range)
Measurement name: Tmax

Tmax in this record for CCC(=O)C(C[C@H](C)N(C)C)(c1ccccc1)c1ccccc1 : 2 h

* * *

# Experimental details: Oral
# Measurement parameters: human, in vivo, 11.2 mg, AUC0-96, oral d5-methadone HCl 11.2 mg, control, mean ± SD, n=12
Measurement name: AUC(0-t) (ng·h/mL)
Write it as a number; the unit ng·h/mL goes unstated.

Measured AUC(0-t), CCC(=O)C(C[C@H](C)N(C)C)(c1ccccc1)c1ccccc1 : 580

* * *

# Experimental details: Oral
# Measurement parameters: human, in vivo, 11.2 mg, tmax, oral d5-methadone HCl 11.2 mg, acute ritonavir, median (range)
Measurement name: Tmax (h)
Numbers only here, please. The scale is h.

Data point: CCC(=O)C(C[C@H](C)N(C)C)(c1ccccc1)c1ccccc1 [S-methadone] ; Tmax = 4

* * *

# Experimental details: Intravenous
# Measurement parameters: human, in vivo, 6 mg, AUC0-96, IV methadone HCl 6.0 mg, acute ritonavir, mean ± SD, n=12
Measurement name: AUC(0-t) (ng·h/mL)
Entry rule: numbers only, all in ng·h/mL.

The molecule listed as CCC(=O)C(C[C@H](C)N(C)C)(c1ccccc1)c1ccccc1 has a reported AUC(0-t) of 215
